Hello, the source for this data is a melting point compilation (Tetko et al.; mined from patent text by program, amines drawn as free bases though some values may be those of a salt), in case you need it.

metric: melting point

molecule	melting point
NNC(=O)NCCSSc1ccccn1	105 to 107 °C
CCOC(=O)Oc1ncc(F)c(N=CN(C)C)n1	124 to 126 °C
Cc1cc(C)cc(C(=O)c2c(C(C)C)c(=O)[nH]c(=O)n2Cc2cc(F)nc(F)c2)c1	185 to 187 °C

# evaluate next
Provide only the value of recorded melting point for "COC(OC)[C@@H]1CCCN1C(=O)[C@@H]1CCCN1C(=O)C[C@H]1CCc2ccccc2C1"
103 to 106 °C

###

Measured melting point by item

Below: 2 compounds and their reported melting point.
CNC(=O)Cn1c(-c2ccc(C)cc2)nc2ccc(Cl)nc21 > 250 °C
COC(=O)c1cc(-c2ncco2)ccc1-c1ccccc1S(=O)(=O)Nc1onc(C)c1C 106 to 112 °C

Look up and state reported melting point for "CN1CCN(c2cccc3ccc(N)cc23)CC1"
157 to 159 °C

###

Parameter: melting point. Scope: all listed entries.

Record excerpt, results attached:
compound	metric	recorded_value
CC1(C)CCc2c(N3CCCC3)nc3sc4c(NCc5ccccn5)ncnc4c3c2C1	melting point	212 to 213 °C
COc1cc2c(CC(=O)O)c(C)n(C(=O)c3ccc(Cl)s3)c2cc1F	melting point	169 °C
COc1ccc(OCc2ccc3ccccc3n2)cc1	melting point	79 to 80 °C
CCOC(=O)C1=C(C)NC(CSC(=O)c2ccc(N)cc2)=C(C(=O)OCC)C1c1cccc([N+](=O)[O-])c1 (stereo not given)	melting point	78 to 80 °C
CC(C)(C)c1cc(-c2nnc(N)s2)cc(C(C)(C)C)c1O	melting point	261 °C

Output measured melting point for this item: N#CN1c2ccccc2CC(O)c2ccccc21 (stereo not given)
117 to 118 °C

Consider the compound Oc1cccc2c1CCC(n1cc[nH]c1=S)C2 (stereo not given) . State its measured melting point.
263 to 265 °C

Assign melting point to the following record: "CC(=O)NN1C(=O)c2cc3ccc4c(c3c(-c3ccc5c(c3)OCO5)c2C1=O)OCO4"
281 to 283 °C

Output melting point of "Cc1ccc(C(=O)NCC(N)=O)cc1-c1cccc2cc(Cc3cccc(C(F)(F)F)c3)sc12"
165 to 166 °C

Given the compound "C=CCNc1nc(Cl)c2ccn(C)c2n1" , write its reported melting point.
113 to 114 °C

Give melting point for the following compound: "O=[N+]([O-])c1cccc(-c2ccc3c(n2)[nH]c2ccccc23)c1"
185 °C

Respond only with melting point recorded for COC(=O)n1nc(C(=O)NC2CN(C)CCN(Cc3ccccc3)C2)c2ccccc21 (stereo not given)
158 to 160 °C

Output measured melting point for this item: "COc1ccc(-n2nc(O)c3c(=O)c4ccc(Cl)cc4[nH]c3c2=O)cc1"
371 to 373 °C

Give melting point for the following compound: FC(F)(F)c1ccc(OCCC(Br)c2ccccc2)cc1 (stereo not given)
61 to 63 °C

Answer with the recorded melting point of "CNC(=O)N1CC(Oc2cccc(C)c2)C1" only.
138 to 142 °C

###

The entries below are paired with their reported melting point.

# example entries with known answers
CC(C)(C)c1ccc(-c2cc3ccc(C(=O)O)cc3[nH]2)cc1 297 °C
Cc1c(S(N)(=O)=O)c(C(F)(F)F)nn1C 204 to 206 °C

Give reported melting point value for "Cn1c(=O)ccc2cc(CBr)ccc21"
99 to 100 °C

###

Collected melting point values appear next to each entry.

compound	melting point
Cc1c(NC(=O)c2ccccc2NCc2ccc(=O)[nH]c2)cccc1C(F)(F)F	191 to 192 °C

Name the recorded melting point of the compound listed here: "O=c1c2c(Cl)cc(Cl)cc2n(Cc2ccccc2)c(=O)n1Cc1ccc(Br)cc1"
163 to 168 °C

// Input: "Cc1cc(CCNc2ncnc3c(F)ccc(F)c23)ccc1O" . Output its melting point only.
244 to 251 °C

Answer with the recorded melting point for the compound listed here: "COC(=O)C=Cc1cc(Oc2c(Cl)cc(C(F)(F)F)cc2Cl)ccc1[N+](=O)[O-]"
90 °C

Provide one value: measured melting point of "[N-]=[N+]=Nc1cc(Cl)nc(-c2ccc([N+](=O)[O-])o2)n1"
114 to 116 °C

Tell us which melting point value is on record for COC(=O)CC(NCCN(C)C)C(=O)O (configuration not stated)
164 to 166 °C

Look up melting point of "Nc1ccc(/C=C/c2ccccc2)nc1" and report it.
159 to 160 °C

###

metric: melting point

Here's what some known entries look like.
compound	melting point
Nc1nccc(CCc2ccc3c(C(=O)Nc4cccc(C(F)(F)F)c4)cccc3c2)n1	225 to 227 °C
N#Cc1ccc(N=Nc2ccc(OCCO)c(C#N)c2)cc1	138 °C
O=[N+]([O-])c1ccc(NN=C(Cl)c2ccccc2)cc1	195 to 196 °C
Cc1ccc(-c2cc(N)c(Cl)c(C(=O)O)n2)cc1C	192 to 194 °C
COc1ccsc1C1OC(=O)NC1=O (stereo not given)	156 to 158 °C

Could you please provide reported melting point for "CC(=O)n1cccc(O)c1=O" ? Thanks!
140 to 141 °C

For the compound CCC(C=O)c1ccc(S(C)(=O)=O)cc1 (stereo not given) , give its reported melting point.
202 to 204 °C

Read off the recorded melting point for "COC(=O)c1ccc2c(c1)-n1cccc1CO2"
60 to 62 °C

Retrieve melting point measured for O=C(O)C12C3C4C5C3C1C5C42 (stereo not given) and print it.
154 to 155 °C

###

metric: melting point

These solved cases illustrate the format of a correct answer.
compound	melting point
Cc1coc(NCCN2CCC(Nc3nc4ccccc4n3Cc3ccc(F)cc3)CC2)n1	178 °C
CS(=O)(=O)c1ccc(-c2cc(CO)nn2CC2CCCCC2)cc1	104 °C
Cc1nn(CCNS(C)(=O)=O)c(-c2ccc(F)cc2)c1-c1ccc2c(c1)NC(=O)CO2	220 to 221 °C
O=c1oc(/C=C/c2ccc(OC(F)F)c(OC(F)F)c2)nc2ccccc12	113 to 115 °C
CCN(C=CC(=O)c1cccnc1)CC	193 to 195 °C
COc1ccc(C2OCCN2CCNc2ccc(NCCN3CCOC3c3ccc(OC)cc3OC)c3c2C(=O)c2c(O)ccc(O)c2C3=O)c(OC)c1 (stereo not given)	181 to 185 °C
Oc1ccc(NCCCCCCBr)cc1	123 to 126 °C
Cc1c(CC(=O)O)c2cc(OCc3nc4ccccc4s3)ccc2n1Cc1ccccc1	186 to 188 °C

Please list melting point recorded for the compound "NS(=O)(=O)c1cc(C(=O)O)cc(CCn2cccc2)c1Cl"
224 to 228 °C

Report measured melting point; entry is "CCOC(=O)c1cc2cccc(OCc3ccccc3)c2[nH]1"
82 to 83 °C

###

metric: melting point

molecule	metric	recorded_value
C=CCOc1ccc2c(=O)c(C)c(-c3ccccc3)oc2c1C(=O)C=Cc1ccccc1	melting point	145 to 147 °C
C#CCN1CCC(N2C(=O)Nc3ccccc3C2c2ccccc2)CC1 (stereo unspecified)	melting point	198 to 201 °C
c1cc(-c2ccncn2)cc(-n2cnc3cc(-c4ccon4)ccc32)c1	melting point	214 to 215 °C
COc1ccc(-n2nnnc2C(F)(F)F)c(OC)c1CBr	melting point	89.5 to 90 °C
COC(=O)c1ccc(NC(C)=O)c(NC(=O)C(COC(C)=O)OC(C)=O)c1 (stereo unspecified)	melting point	130 to 134 °C

Next item in the queue.
Check the records and state melting point for "COC(=O)c1ccc(Cl)cc1NC(=O)Cc1cccc(OC)c1"
144 to 146 °C

###

metric: melting point

Answered cases to consult:
compound	melting point
Cc1ccccc1-c1cccc(C=NNC(=S)NN2CCCC2)n1	172 to 173 °C
C=CCOc1cccc(C(=O)c2ccccc2C(=O)O)c1	109 °C

Supply measured melting point of COc1cc(OC)nc(NC(=O)N=NS(=O)(=O)C2SCC(=O)N2C)n1 (centres undefined) in your reply.
200 to 201 °C

Tell me measured melting point for "CC1=NN(c2cc(-c3ccnc(Nc4cccc(Cl)c4)n3)ccn2)C(=O)C1" please.
149 to 150 °C

###

The entries below come with measured melting point values attached.

COc1ccc(S(=O)(=O)n2c(CCCC(=O)O)cc3nc(Cl)ccc32)c(C)c1 134 to 140 °C

Item "COC(=O)/C=C/c1cnc2ccccc2c1" : provide melting point
118 to 120 °C

Provide only the value of recorded melting point for "Cc1oc(-c2ccccc2)nc1CCOc1ccc(COc2ccccc2CC(=O)O)cc1"
141 to 142 °C

###

metric: melting point

Below: 8 compounds and their reported melting point.
compound	recorded_value
CNC(=O)CN1CCC(O)C1=O (stereo unspecified)	129 to 130 °C
O=c1[nH]c(=O)n(CCCN2CCN(C(c3ccccc3)c3ccccc3)CC2)c2ccccc12	261 to 264 °C
CCN(CC)c1ccc(Nc2nc(N)c(C(=O)c3ccccc3[N+](=O)[O-])s2)cc1	202 to 205 °C
NC(=O)CNCC(=O)NCCCO	118 to 120 °C
c1ccc(Cc2ncc(-c3cnc(-c4ccccc4)nc3)[nH]2)cc1	235 °C
CC1C[C@H]2[C@@H]3CCC4=CC(=O)CC[C@]4(CS)[C@H]3CC[C@]2(C)C1=O (stereo partly specified)	130 to 132 °C
O=C1NC(=O)C(CC#Cc2ccc(Cl)cc2)(S(=O)(=O)c2cc(Cl)c(Cl)s2)S1 (stereo unspecified)	160 °C
CCOC(=O)C1C(c2ccco2)C(C(=O)OCC)C(O)(C(F)(F)F)NC1(O)C(F)(F)F (stereo unspecified)	129 to 131 °C

For the compound "COc1ccc(-n2cncc2-c2ccccc2)cc1" , report melting point.
106 °C

Using the record for "O[C@H](COc1ccccc1C=Cc1nc2ccccc2s1)CN1CCC(c2ccc3ccccc3c2)CC1" , state its measured melting point.
125 to 127 °C
